Target: Human TRPV1 expressing CHO cells (Homo sapiens)
Construct: expressed in transfected cells; host or cells: CHO cells under G-418 selection
Experiment: Screening for TRPV1 antagonist using the 45Calcium uptake assay (inhibition of capsaicin induced cellular uptake of radioactive calcium)
Format: cell-based
Conditions: CHO, test compound 1 μM, capsaicin 250 nM, relative to maximum ^45Ca uptake induced by capsaicin alone
property name: inhibition at 1 µM

Recorded result, CC(C)(C)c1nnc(NC(=O)NC2CC3(CCC3)Oc3ccccc32)s1 (racemic) , inhibition at 1 µM: > 50%

Recorded result, O=C(Nc1cccc2cnccc12)NC1CC2(CCC2)Oc2c(Cl)cc(Cl)cc21 (racemic) , inhibition at 1 µM: > 50%

Recorded result, CN1CCC2(CC1)CC(NC(=O)Nc1cccc3cnccc13)c1ccccc1O2 (racemic) , inhibition at 1 µM: 142%

Recorded result, O=C(Nc1cccc2cnccc12)NC1CC2(CCC2)Oc2ccc(Cl)cc21 (single isomer, unassigned; (-)) [Example 64] , inhibition at 1 µM: < 50%

Recorded result, Cc1nccc2c(NC(=O)NC3CC4(CCC4)Oc4ccc(F)cc43)cccc12 (racemic) , inhibition at 1 µM: > 50%

Recorded result, O=C(Nc1cccc2c[n+]([O-])ccc12)NC1CC2(CCC2)Oc2ccccc21 (racemic) [Example 9] , inhibition at 1 µM: > 50%

Recorded result, CNS(=O)(=O)c1ccc2c(c1)C(NC(=O)Nc1cccc3cnccc13)CC1(CCC1)O2 (racemic) , inhibition at 1 µM: < 50%

Recorded result, O=C(Nc1cccc2cnccc12)NC1CC2(CCC2)Oc2ccc([N+](=O)[O-])cc21 (racemic) , inhibition at 1 µM: > 50%

Recorded result, Cc1cc2c(cc1Cl)C(NC(=O)Nc1cccc3cnccc13)CC1(CCC1)O2 (racemic) , inhibition at 1 µM: > 50%

###

Target: Human TRPV1 expressing CHO cells (Homo sapiens, UniProt Q8NER1)
Sequence (Q8NER1 whole entry): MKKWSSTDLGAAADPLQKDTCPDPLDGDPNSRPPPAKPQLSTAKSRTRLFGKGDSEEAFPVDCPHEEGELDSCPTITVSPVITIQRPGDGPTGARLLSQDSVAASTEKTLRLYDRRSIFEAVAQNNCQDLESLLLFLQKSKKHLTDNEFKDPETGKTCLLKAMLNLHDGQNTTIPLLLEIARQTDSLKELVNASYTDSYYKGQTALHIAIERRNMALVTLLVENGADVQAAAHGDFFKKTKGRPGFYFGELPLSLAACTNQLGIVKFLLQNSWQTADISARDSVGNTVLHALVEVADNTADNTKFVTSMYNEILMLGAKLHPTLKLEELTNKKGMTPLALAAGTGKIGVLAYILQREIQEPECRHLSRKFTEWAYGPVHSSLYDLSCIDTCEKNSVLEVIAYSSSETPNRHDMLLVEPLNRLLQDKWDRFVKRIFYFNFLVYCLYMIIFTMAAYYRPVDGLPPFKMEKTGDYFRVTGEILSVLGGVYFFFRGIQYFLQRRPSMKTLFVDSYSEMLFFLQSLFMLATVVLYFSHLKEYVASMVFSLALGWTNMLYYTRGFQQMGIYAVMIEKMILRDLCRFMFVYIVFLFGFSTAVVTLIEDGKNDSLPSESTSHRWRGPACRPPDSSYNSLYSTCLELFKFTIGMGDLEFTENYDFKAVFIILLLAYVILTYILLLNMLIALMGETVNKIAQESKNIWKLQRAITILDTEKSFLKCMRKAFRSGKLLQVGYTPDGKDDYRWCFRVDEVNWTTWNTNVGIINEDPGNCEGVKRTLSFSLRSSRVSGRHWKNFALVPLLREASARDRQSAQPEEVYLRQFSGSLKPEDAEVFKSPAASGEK
Test: Screening for TRPV1 antagonist using the 45Calcium uptake assay (inhibition of capsaicin induced cellular uptake of radioactive calcium)
Settings: inhibition of capsaicin (250 nM) induced ^45Ca uptake
What pIC50 was measured for each of the following?
Formally, pIC50 is defined as -log10 of the concentration c, with c in mol/L.

Recorded result, O=C(Nc1cccc2cnccc12)NC1CC2(CCC2)Oc2ccc([N+](=O)[O-])cc21 (racemic) [Example 77] , pIC50: 6.33

Recorded result, O=C(Nc1cccc2cnccc12)NC1CC2(CCC2)Oc2cc(OC3CCCC3)ccc21 (racemic) [Example 53] , pIC50: 7.80

Recorded result, O=C(Nc1cccc2cnccc12)NC1CC2(CCC2)Oc2cc(Cl)c(Cl)cc21 (racemic) [Example 68] , pIC50: 6.65

###

Target: Human TRPV1 expressing CHO cells (Homo sapiens, UniProt Q8NER1)
Assay: Screening for TRPV1 antagonist using the 45Calcium uptake assay (inhibition of capsaicin induced cellular uptake of radioactive calcium)
Details: inhibition of capsaicin (250 nM) induced ^45Ca uptake
pIC50: −log10 of the molar value. Where a name gives a salt, the structure may show the parent alone.
Outcome: Yes for pIC50 of at least 7; No for anything lower.

Input: Does the compound Cc1nccc2c(NC(=O)NC3CC4(CCC4)Oc4ccc(F)cc43)cccc12 (racemic) have recorded pIC50 that is 7 or more?
Output: Yes

Input: Does the compound O=C(Nc1cccc2cnccc12)NC1CC2(CCC2)Oc2c(Cl)cccc21 (racemic) have recorded pIC50 that is 7 or more?
Output: Yes

Input: Does the compound Cc1nccc2c(NC(=O)NC3CC4(CCC4)Oc4ccccc43)cccc12 (racemic) have recorded pIC50 that is 7 or more?
Output: No

Input: Does the compound O=C(Nc1cccc2cnccc12)NC1CC2(CCC2)Oc2ccccc21 (single isomer, unassigned; (+)) [Example 4] have recorded pIC50 that is 7 or more?
Output: Yes

Input: Does the compound Cc1cc2c(cc1Br)C(NC(=O)Nc1cccc3cnccc13)CC1(CCC1)O2 (racemic) have recorded pIC50 that is 7 or more?
Output: No

Input: Does the compound O=C(Nc1cccc2cnccc12)NC1CC2(CCC2)S(=O)(=O)c2ccccc21 (racemic) have recorded pIC50 that is 7 or more?
Output: No

Input: Does the compound O=C(Nc1ccc(Cl)c2cnccc12)NC1CC2(CCC2)Oc2ccc(F)cc21 (racemic) have recorded pIC50 that is 7 or more?
Output: No

Input: Does the compound Cc1cc2c(NC(=O)NC3CC4(CCC4)Oc4ccc(F)cc43)cccc2cn1 (racemic) have recorded pIC50 that is 7 or more?
Output: No

Input: Does the compound O=C(Nc1cccc2cnccc12)NC1CC2(CCOCC2)Oc2ccccc21 (racemic) have recorded pIC50 that is 7 or more?
Output: No

Input: Does the compound Cc1cc2c(cc1Cl)C(NC(=O)Nc1cccc3cnccc13)CC1(CCC1)O2 (racemic) have recorded pIC50 that is 7 or more?
Output: Yes

Input: Does the compound O=C(Nc1cccc2cnccc12)NC1CC2(CCC2)Oc2cc(OC(F)F)ccc21 (racemic) [Example 54, Hydrochloride] have recorded pIC50 that is 7 or more?
Output: Yes

Input: Does the compound O=C(Nc1cccc2cnccc12)NC1CC2(CCC2)Sc2ccccc21 (racemic) have recorded pIC50 that is 7 or more?
Output: Yes
